assayName: clinical
Format: in vivo
conditionNotes: human, in vivo, po
From the text: The human dosing schedule is shown below. |______________________________________ […] | Interval BID Dose (mg) (Study Day) |______________________________________ […] | 3 15 15 […] | 5 30 25 |______________________________________
reportedProperty: concentration at 2 h

-- ask Value lookup for concentration at 2 h; key = O=C1CC2(CCCC2)CC(=O)N1CCCCN1CCN(c2ncccn2)CC1 [Buspirone, reference compound]
-- reply < 1 ng/mL
